- Assay Details: Cytotoxicity against multidrug resistant mouse L5178 cells after 24 hrs by MTT assay
- Assay type: cell-based
- Condition Set: l5178, 24 h
Endpoint Name: Activity

                                   compound  observed_measurement
0  COC(=O)CN1C(=O)N(CCCCN2CCN(c3ccccc3)CC2)C2(C1=O)c1ccccc1-c1ccccc12              > 100 µM
1  COC(=O)CN1C(=O)N(CCCN2CCN(c3ccccc3)CC2)C(c2ccccc2)(c2ccccc2)C1=O              > 100 µM
2  COc1ccccc1N1CCN(CCCCN2C(=O)N(CC(=O)O)C(=O)C2(c2ccccc2)c2ccccc2)CC1              > 100 µM
3  COc1ccccc1N1CCN(CC(O)CN2C(=O)N(CC(=O)O)C(=O)C2(c2ccccc2)c2ccccc2)CC1 (stereo not drawn)              > 100 µM
4  COC(=O)CN1C(=O)N(CCCCN2CCN(C(=O)c3ccco3)CC2)C2(C1=O)c1ccccc1-c1ccccc12                 63 µM
5  O=C(O)CN1C(=O)N(CCCCN2CCN(C(=O)c3ccco3)CC2)C2(C1=O)c1ccccc1-c1ccccc12              > 100 µM
6  COC(=O)CN1C(=O)N(CC(O)CN2CCN(c3ccccc3)CC2)C(c2ccccc2)(c2ccccc2)C1=O (stereo not drawn)                 67 µM
7  COC(=O)CN1C(=O)N(CCCCN2CCN(c3ccc(F)cc3)CC2)C2(C1=O)c1ccccc1-c1ccccc12                 56 µM
